# target-of-assay: immunoproteasome LMP7/B5i subunit (Homo sapiens)
# method-summary: Caliper-based proteasome enzymatic activity assay, LMP7
# Assay type: biochemical
# study-conditions: human recombinant immunoproteasome 0.3 nM, FAM-labeled peptide substrate 1 μM, rt 3 h; read-out: LMP7 subunit IC50

{"columns": ["molecule", "IC50 [nM]"],
 "data": [
  ["Cc1ccc(C[C@H](NC(=O)NC[C@H]2CCCN2C(=O)C(C#N)=CC(C)(C)C)B(O)O)cc1", 4.4],
  ["Cc1ccncc1C(=O)N[C@@H](CCCCNC(=O)C(C#N)=CC(C)C)C(=O)N[C@@H](Cc1ccccc1)B(O)O", 6.4],
  ["CC(C)(C=C(C#N)C(=O)N1CC[C@H](OC(=O)N[C@@H](Cc2ccccc2)B(O)O)C1)N1CCC(F)(F)C1", 1.8],
  ["COC(=O)N1CCN(C(C)(C)C=C(C#N)C(=O)N2CC[C@H](COC(=O)N[C@@H](Cc3ccccc3)B(O)O)C2)CC1", 8.7],
  ["CC(C)C=C(C#N)C(=O)N1CCC[C@@H]1COC[C@H](NC(=O)c1cc(Cl)ccc1Cl)C(=O)N[C@@H](Cc1ccccc1)[B-]12OC(=O)C[N+]1(C)CC(=O)O2 (some centres unmarked)", 9.6],
  ["CC(C)(C=C(C#N)C(=O)N1CCO[C@@H](CC(=O)N[C@@H](Cc2ccccc2)B(O)O)C1)N1CCC(F)(F)C1", 11],
  ["CC(C)(C=C(C#N)C(=O)N1C[C@H](OC(=O)N[C@@H](Cc2ccccc2)B(O)O)[C@@H](F)C1)N1CCC(F)(F)C1", 3.5],
  ["CC(C)(C=C(C#N)C(=O)N1CCC[C@H](OC(=O)N[C@@H](Cc2ccccc2)B(O)O)C1)N1CCC(F)(F)C1", 1.4],
  ["C=CC(=O)N1CCC[C@H]1CNC(=O)N[C@@H](Cc1ccccc1)B(O)O", 4530],
  ["CC(C)C=C(C#N)C(=O)NCCCC[C@H](NC(=O)c1cc(Cl)ccc1Cl)C(=O)N[C@@H](CC(C)C)B(O)O", 29.6],
  ["N#CC(=CC1CC1)C(=O)N1CCC[C@@H]1COC[C@H](NCC(F)(F)F)C(=O)N[C@@H](Cc1ccccc1)B(O)O", 22],
  ["C=CC(=O)N1C2CCC1(COC(=O)N[C@@H](CCc1ccccc1)B(O)O)CC2", 528],
  ["C=CC(=O)N1CCC[C@H](OC(=O)N[C@@H](Cc2coc3ccccc23)B(O)O)C1", 7.5],
  ["CC(C)(C=C(C#N)C(=O)N1CCCC[C@@H](OC(=O)N[C@@H](Cc2ccc(F)cc2)B(O)O)C1)N1CCOCC1", 1.9]
]}

---

# target-of-assay: immunoproteasome LMP7/B5i subunit (Homo sapiens)
# method-summary: Caliper-based proteasome enzymatic activity assay, LMP7
# Format: biochemical
# study-conditions: human recombinant immunoproteasome 0.3 nM, FAM-labeled peptide substrate 1 μM, rt 3 h; read-out: LMP7 subunit IC50
observed-property: IC50

{"columns": ["compound", "measured-result"],
 "data": [
  ["CC(C)(C=C(C#N)C(=O)N1CC[C@H](NC(=O)N[C@@H](Cc2ccccc2)B(O)O)C1)N1CCC(F)(F)C1 [Example 100]", "206 nM"],
  ["CC(C)C=C(C#N)C(=O)N1CCC[C@@H]1CNC(=O)N[C@@H](Cc1ccccc1)B(O)O [Example 32]", "37.2 nM"],
  ["CC(C)(C=C(C#N)C(=O)N1CCC[C@](C)(OC(=O)N[C@@H](Cc2ccccc2)B(O)O)C1)N1CCC(F)(F)C1 (single isomer, unassigned) [Example 92]", "42.2 nM"]
]}
